test: Viability qHTS for spleen associated tyrosine kinase inhibitor (SYKi) naive MV4-11 cells (AID 1963823); settings: MV4-11 AML viability, CellTiter-Glo luminescence, 72 h; series mostly up to 45 µM; also: nearly all actives have a fitted effect of over 40% in size
Results filed as inconclusive are left out. The source made the active and inactive calls. Calls follow the shape of the dose curve; as a rule, active = well fitted cell-killing curve with a large enough effect; inconclusive = small, poorly fitted or top-dose-only effect, or effect the other way; inactive = no such curve, though single readings can be large or run the other way.
In this exercise, the only acceptable responses are T = active, F = inactive

As a guide, the following entries are already answered.
NC(=O)NS(=O)(=O)c1ccc(Cl)cc1
F
Cc1ccc(-c2ncccn2)c(C(=O)N2C[C@H](COc3ccc(F)cn3)CC[C@H]2C)c1
F
NS(=O)(=O)c1cc2c(cc1Cl)NC(C1CC3C=CC1C3)NS2(=O)=O (stereo not given)
F
CC(C)c1ccc2c(c1)c(SC(C)(C)C)c(CC(C)(C)C(=O)O)n2Cc1ccc(Cl)cc1
T
CC1=C(C/C=C(\C)CCC[C@H](C)CCC[C@H](C)CCCC(C)C)C(=O)c2ccccc2C1=O
F

Prompt: Outcome? CC(C)(Oc1ccc(CCNC(=O)c2ccc(Cl)cc2)cc1)C(=O)O
Response: F

Prompt: Also C=C(C)[C@@H]1CC[C@]2(C(=O)O)CC[C@]3(C)C(CCC4[C@]5(C)C(CC[C@]43C)C(C)(C)[C@@H](O)[C@@H]5C(=O)O)C12 (stereo not given in full) ?
Response: F

Prompt: Also Cc1cc(Nc2cc(C)c(C#N)c(NC(C)CCCC(C)(C)O)n2)n[nH]1 (stereo not given) ?
Response: T

Prompt: Also FC(F)(F)c1nnc2c(Sc3ccccc3)nc3ccc(Cl)cc3n12 ?
Response: T

Prompt: Also CC(C)c1cc2c(c(O)c1O)[C@@]13CCCC(C)(C)C1[C@@H](O)[C@@H]2OC3=O (stereo not given in full) ?
Response: T

Prompt: Also O=c1ccn([C@@H]2O[C@H](CO)[C@@H](O)[C@H]2O)c(=O)[nH]1 ?
Response: F
